- measurement.target: T1, BSA-conjugated Aβ heptapeptide VFFAEDC (C-terminal Cys coupled to NSMP-activated BSA);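 note: ELISA of antibody at 10 or 2 µg/ml binding plate-coated BSA–peptide conjugates, detected with HRP anti-human Ig and TMB colour, mock-treated BSA without peptide as negative control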
- T1 construct: also called Peptide 18-23
- T1 peptide: VFFAEDC
- procedure.text: ELISA
recorded.metric: OD ratio 18-23/BSA
Form: value (number only, do not type unit).

INSERT INTO measurements (binder, recorded_metric, result_number) VALUES
  ('MS-Roche #7.9.H3 Fab (Fab, V domains shown, assembled) VH: QVQLVESGGGLVQPGGSLRLSCAASGFTFSSYAMSWVRQAPGKGLEWVSAINYQGNRKYYADSVKGRFTISRDNSKNTLYLQMNSLRAEDTAVYYCARGKGNTHKPYGYVRYFDVWGQGTLVTVSS VL: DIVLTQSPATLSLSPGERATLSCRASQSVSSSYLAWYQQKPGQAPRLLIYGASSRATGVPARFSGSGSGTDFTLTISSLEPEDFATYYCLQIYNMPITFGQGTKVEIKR', 'OD ratio 18-23/BSA', 20);

Attention now shifts to the item below.
## Input Please give measured OD ratio 18-23/BSA of the following entry: MS-Roche #7.12 Fab (Fab, V domains shown) VH: QVQLVESGGGLVQPGGSLRLSCAASGFTFSSYGMSWVRQAPGKGLEWVSNISGSGSSTYYADSVKGRFTISRDNSKNTLYLQMNSLRAEDTAVYYCARGKGNTHKPYGYVRYFDVWGQGTLVTVSS VL: DIVLTQSPATLSLSPGERATLSCRASQYVSSPYLAWYQQKPGQAPRLLISGSSNRATGVPARFSGSGSGTDFTLTISSLEPEDFAVYYCLQLYNIPNTFGQGTKVEIKR
## Output 8
